# Test System: binding of FAM19A5 protein to full-length ectodomain of the LRRC4B protein (amino acids 36-576 of SEQ ID NO: 2) (Homo sapiens)
# Sequence (Q7Z5A7 44-132): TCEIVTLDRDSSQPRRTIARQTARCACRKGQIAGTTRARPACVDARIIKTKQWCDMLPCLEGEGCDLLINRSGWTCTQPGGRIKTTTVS
# Method Summary: Competitive inhibition assay, plate coated with full-length ectodomain of LRRC4B (amino acids 36-576)
# Measurement Parameters: Table 10; alanine/asparagine mutants
For each record, write down the corresponding Inhibition rate (%) LRRC4B (amino acids 36-576)-hFc.
Numbers only, in %.

Each of the following entries comes with a recorded value; kindly state Inhibition rate (%) LRRC4B (amino acids 36-576)-hFc for each.
1. GYTYFTTVAVETLETQPGEE [FB-20[A8]]
2. GYTNFTTVTVETLETQPGEE [FB-20[N3]]
3. GYTYFTTVTVETLATQPGEE [FB-20[A13]]
4. GYTYNTTVTVETLETQPGEE [FB-20[N4]]
5. GYTYFTTNTVETLETQPGEE [FB-20[N7]]
6. GYTYFTNVTVETLETQPGEE [FB-20[N6]]

1. 3.9
2. −5.0
3. 51.4
4. −1.3
5. 24.5
6. −11.4

These entries and their values trace back to patent US20240238445A1.
